assay: Plasma and urine pharmacokinetics of napabucasin in patients; type: in vivo, Japanese patients; settings: human, plasma, oral, 720 mg, plasma, Cycle 2 (Day 29), Cohort 3 (1440 mg/day, 720 mg BID), n = 5; read-out: AUC0–∞, range
REPORTED_METRIC: AUC(0-inf)

Specify AUC(0-inf) for CC(=O)c1cc2c(o1)C(=O)c1ccccc1C2=O and stop.
4740 to 123000 ng·h/mL

----------
test: Plasma and urine pharmacokinetics of napabucasin in patients; assay type: in vivo, Japanese patients; conditions: human, plasma, oral, 720 mg, plasma, Cycle 1 (Day 1), Cohort 3 (1440 mg/day, 720 mg BID), n = 7; read-out: Cmax, range
REPORTED_METRIC: Cmax

Supply measured Cmax of CC(=O)c1cc2c(o1)C(=O)c1ccccc1C2=O in your reply.
641 to 2070 ng/mL
